measurement_description: xn = mol fraction of the nth substance listed
settings: 308.15 K, x1 = 0.3
Exercise: state measured surface tension liquid-gas for each of the compounds provided.
Answer with a number only, understood to be in mN/m.

Task: Param item = CCCC(=O)OCCC(C)C [3-methylbutyl butanoate] + CCO ; retrieve measured surface tension liquid-gas.
Output: 22.6

Task: May I ask what surface tension liquid-gas has been recorded for CCCCCCCC(=O)OCC [ethyl octanoate] + CCO ?
Output: 23.7

Task: Need surface tension liquid-gas of CCOC(=O)c1ccccc1 [ethyl benzoate] + CCO , thanks.
Output: 25.6

Task: Give the measured surface tension liquid-gas of CCCCCC(=O)OCC [ethyl hexanoate] + CCO .
Output: 23

Task: Can you share its surface tension liquid-gas? I mean this compound: CCOC(=O)Cc1ccccc1 [ethyl phenylacetate] + CCO
Output: 25.1

Task: May I ask what surface tension liquid-gas has been recorded for CC(=O)OCCC(C)C [3-methylbutyl ethanoate] + CCO ?
Output: 22

###

measurement_description: xn = mol fraction of the nth substance listed
settings: 298.15 K, x1 = 0.1
Numbers after ± are expanded uncertainties.
Exercise: state measured surface tension liquid-gas for each of the compounds provided.
Please state the value followed by its unit.

Task: I would be grateful if you could share the reported surface tension liquid-gas for CCOC(=O)c1ccccc1 [ethyl benzoate] + CCO .
Output: 23.9 ± 0.6 mN/m

Task: Requested field: surface tension liquid-gas. Item: CCCC(=O)OCCC(C)C [3-methylbutyl butanoate] + CCO
Output: 22.8 ± 0.6 mN/m

Task: # query: surface tension liquid-gas of entry CCOC(=O)Cc1ccccc1 [ethyl phenylacetate] + CCO
Output: 23.7 ± 0.6 mN/m

Task: Given the compound CCCCCC(=O)OCC [ethyl hexanoate] + CCO , what is its reported surface tension liquid-gas?
Output: 23 ± 0.6 mN/m

Task: // lookup surface tension liquid-gas for CC(=O)OCCC(C)C [3-methylbutyl ethanoate] + CCO
Output: 22.5 ± 0.4 mN/m

Task: State the recorded surface tension liquid-gas for this entry: CCCCCCCC(=O)OCC [ethyl octanoate] + CCO
Output: 23.3 ± 0.6 mN/m

###

measurement_description: xn = mol fraction of the nth substance listed
settings: 288.15 K, x1 = 0.75
measure_name: surface tension liquid-gas (mN/m)
Just the number please, in mN/m, no unit attached.

Task: Given the entry CC(=O)OCCC(C)C [3-methylbutyl ethanoate] + CCO , report its measured surface tension liquid-gas.
Output: 24.9

Task: Record request: surface tension liquid-gas value, item CCCCCC(=O)OCC [ethyl hexanoate] + CCO
Output: 25.9

Task: Please report the recorded surface tension liquid-gas for CCOC(=O)Cc1ccccc1 [ethyl phenylacetate] + CCO .
Output: 32.8

Task: Sample CCCCCCCC(=O)OCC [ethyl octanoate] + CCO — what was its surface tension liquid-gas?
Output: 26.7

Task: # query: surface tension liquid-gas of entry CCCC(=O)OCCC(C)C [3-methylbutyl butanoate] + CCO
Output: 25.2

Task: Entry CCOC(=O)c1ccccc1 [ethyl benzoate] + CCO : reported surface tension liquid-gas = ?
Output: 32.3

###

measurement_description: refractive index (Na D-line) (dimensionless); xn = mol fraction of the nth substance listed
settings: 318.15 K; 100.5 kPa; Liquid; Standard Abbe refractometry; x1 = 0.45
measure_name: refractive index
Please reply with the number alone, leaving off any unit.

Task: # input compound: CCCCCCCC(=O)OCC [ethyl octanoate] + CCO ; wanted: its refractive index
Output: 1.39195

Task: Item CCOC(=O)Cc1ccccc1 [ethyl phenylacetate] + CCO has what recorded refractive index?
Output: 1.44484

Task: Please give the measured refractive index for this compound: CCOC(=O)c1ccccc1 [ethyl benzoate] + CCO
Output: 1.44765

Task: Need refractive index, item CC(=O)OCCC(C)C [3-methylbutyl ethanoate] + CCO
Output: 1.37634

Task: Given the compound CCCC(=O)OCCC(C)C [3-methylbutyl butanoate] + CCO , what is its reported refractive index?
Output: 1.38544

Task: Can you look up the measured refractive index of CCCCCC(=O)OCC [ethyl hexanoate] + CCO for me?
Output: 1.38216

###

measurement_description: refractive index (Na D-line) (dimensionless); xn = mol fraction of the nth substance listed
settings: 298.15 K; 100.5 kPa; Liquid; Standard Abbe refractometry; x1 = 0.6
measure_name: refractive index
The reply should be a number, written without any unit.

Task: What refractive index value was documented for this compound, CCOC(=O)Cc1ccccc1 [ethyl phenylacetate] + CCO ?
Output: 1.46908

Task: So what's the measured refractive index for this one? CC(=O)OCCC(C)C [3-methylbutyl ethanoate] + CCO
Output: 1.39013

Task: Suppose we examine the compound CCCC(=O)OCCC(C)C [3-methylbutyl butanoate] + CCO ; what refractive index value has been reported?
Output: 1.39956

Task: What value of measured refractive index is listed for CCCCCCCC(=O)OCC [ethyl octanoate] + CCO ?
Output: 1.40621

Task: So what does the record say about refractive index for CCOC(=O)c1ccccc1 [ethyl benzoate] + CCO ?
Output: 1.47372

Task: Field request: refractive index | item: CCCCCC(=O)OCC [ethyl hexanoate] + CCO
Output: 1.3962

###

measurement_description: refractive index (Na D-line) (dimensionless); xn = mol fraction of the nth substance listed
settings: 298.15 K; 100.5 kPa; Liquid; Standard Abbe refractometry; x1 = 0.8
Kindly state refractive index for each of the entries shown.
Reply briefly: the number, and no unit.

Task: Value lookup for refractive index; key = CCCCCCCC(=O)OCC [ethyl octanoate] + CCO
Output: 1.41166

Task: # lookup: refractive index of CCOC(=O)c1ccccc1 [ethyl benzoate] + CCO
Output: 1.49047

Task: Which refractive index value is on record for CC(=O)OCCC(C)C [3-methylbutyl ethanoate] + CCO ?
Output: 1.39482

Task: I would be grateful if you could share the reported refractive index for CCCC(=O)OCCC(C)C [3-methylbutyl butanoate] + CCO .
Output: 1.40458

Task: Consider the compound CCOC(=O)Cc1ccccc1 [ethyl phenylacetate] + CCO and give its measured refractive index.
Output: 1.48403

Task: Form field: reported refractive index of CCCCCC(=O)OCC [ethyl hexanoate] + CCO
Output: 1.40133

###

measurement_description: xn = mol fraction of the nth substance listed
settings: 308.15 K, x1 = 0.75
Task for the reader: assign each of the following compounds its reported surface tension liquid-gas.
// note: answer is a bare numeric in mN/m

Task: // lookup surface tension liquid-gas for CC(=O)OCCC(C)C [3-methylbutyl ethanoate] + CCO
Output: 22.9

Task: // surface tension liquid-gas lookup, key: CCOC(=O)c1ccccc1 [ethyl benzoate] + CCO
Output: 30.1

Task: Item under review: CCCCCCCC(=O)OCC [ethyl octanoate] + CCO . Reported surface tension liquid-gas?
Output: 25

Task: # input compound: CCOC(=O)Cc1ccccc1 [ethyl phenylacetate] + CCO ; wanted: its surface tension liquid-gas
Output: 30.4

Task: Reported surface tension liquid-gas, compound CCCCCC(=O)OCC [ethyl hexanoate] + CCO : ____
Output: 24

Task: Need surface tension liquid-gas, item CCCC(=O)OCCC(C)C [3-methylbutyl butanoate] + CCO
Output: 23.5

###

measurement_description: refractive index (Na D-line) (dimensionless); xn = mol fraction of the nth substance listed
settings: 318.15 K; 100.5 kPa; Liquid; Standard Abbe refractometry; x1 = 0.35
measure_name: refractive index
Answer with a number only.

Task: For the compound shown here, CCCC(=O)OCCC(C)C [3-methylbutyl butanoate] + CCO , give the reported refractive index.
Output: 1.38096

Task: Would you mind telling me what refractive index value was observed for CCCCCCCC(=O)OCC [ethyl octanoate] + CCO ?
Output: 1.38698

Task: What measured refractive index goes with CCOC(=O)Cc1ccccc1 [ethyl phenylacetate] + CCO ?
Output: 1.43203

Task: Given CC(=O)OCCC(C)C [3-methylbutyl ethanoate] + CCO , state its recorded refractive index.
Output: 1.37268

Task: What value of refractive index has been recorded for this entry: CCCCCC(=O)OCC [ethyl hexanoate] + CCO
Output: 1.37795

Task: Fill blank: measured refractive index of the compound CCOC(=O)c1ccccc1 [ethyl benzoate] + CCO is ____.
Output: 1.43378

###

measurement_description: refractive index (Na D-line) (dimensionless); xn = mol fraction of the nth substance listed
settings: 318.15 K; 100.5 kPa; Liquid; Standard Abbe refractometry; x1 = 0.4
I'd be grateful if you could share measured refractive index for these entries.
Lab note: record just the number, no unit beside it.

Task: Would you kindly share the measured refractive index for CC(=O)OCCC(C)C [3-methylbutyl ethanoate] + CCO ?
Output: 1.3746

Task: Consider the compound CCOC(=O)Cc1ccccc1 [ethyl phenylacetate] + CCO and give its measured refractive index.
Output: 1.43878

Task: Would you kindly share the measured refractive index for CCCCCCCC(=O)OCC [ethyl octanoate] + CCO ?
Output: 1.38961

Task: Given the entry CCOC(=O)c1ccccc1 [ethyl benzoate] + CCO , report its measured refractive index.
Output: 1.44105

Task: Return reported refractive index; argument: CCCC(=O)OCCC(C)C [3-methylbutyl butanoate] + CCO
Output: 1.38332

Task: Requested field: refractive index. Item: CCCCCC(=O)OCC [ethyl hexanoate] + CCO
Output: 1.38016
